Give measured TGI for each item. Keep answers brief.
System: K-562 leukemia
Experiment: NCI tumour cell line growth inhibition, 48 h

// query Quick check: TGI of CCCCC[C@@H]1CCCC2NC(CCCCCO[Si](c3ccccc3)(c3ccccc3)C(C)(C)C)CCC21 (stereo not given in full) ?
// result 20.9 µM

// query Quick check: TGI of "O=C(O)c1ccc2c(O)c(O)ccc2c1" ?
// result > 63.6 µM

// query Quick check: TGI of "O=C1OC(c2ccc([N+](=O)[O-])cc2)=N/C1=C\c1ccc(Cl)cc1" ?
// result > 100 µM

// query Quick check: TGI of "CCOC(=O)c1ccc(N=Cc2ccc(N(CCC#N)S(=O)(=O)c3ccccc3)cc2C)cc1" ?
// result > 100 µM

// query Quick check: TGI of "O=C(CCCc1cccc2[nH]c3c(c12)CN(Cc1ccccc1)CC3)c1ccc(F)cc1" ?
// result > 100 µM

###

Give measured GI50 for each item. Keep answers brief.
System: COLO 205 colon
Assay: NCI tumour cell line growth inhibition, 48 h

// query Quick check: GI50 of "COc1ccc(C2=C(c3ccc(OC)cc3)C(=O)OC2)cc1" ?
// result 1.38 µM

// query Quick check: GI50 of "Nc1[nH]nc(Nc2ccccc2)c1-c1nc2ccccc2s1" ?
// result 1.89 µM

// query Quick check: GI50 of "CNc1c2ccccc2nc2occ(Cl)c12" ?
// result 30.6 µM

// query Quick check: GI50 of "N.N.N.N.N#N.N#N.[Cl-].[Os+6]" ?
// result > 100 µM

// query Quick check: GI50 of "COc1ccc(-c2nc(NC(=O)CS(=O)(=O)c3ccc(F)cc3)sc2C)cc1" ?
// result 15.3 µM

// query Quick check: GI50 of "O=[N+]([O-])c1ccccc1/C=N\NC(=S)N/N=C/c1ccccc1[N+](=O)[O-]" ?
// result 11.3 µM

// query Quick check: GI50 of "CC(C)(C)OC(=O)NCCCCCCCCCn1c2c(c3ccccc3c1=O)C(=O)c1ccccc1-2" ?
// result > 100 µM

// query Quick check: GI50 of "COc1ccc(-n2nc(C)c3c(Nc4ccc(NC(=O)Nc5cccc(C(F)(F)F)c5)cc4)ncnc32)cc1" ?
// result 1.65 µM

// query Quick check: GI50 of "O=C(O)CCCN1C(=O)/C(=C/C(Cl)=C/c2ccccc2)SC1=S" ?
// result 1.9 µM

// query Quick check: GI50 of "Cc1cc(NC(=O)NCCOc2ccc(N3C(N)=NC(N)=NC3(C)C)cc2Cl)ccc1S(=O)(=O)F" ?
// result 1.4 µM

// query Quick check: GI50 of "O=C1c2c(c3c4cc(F)ccc4oc3c3[nH]c4ccccc4c23)C(=O)N1O" ?
// result 4.15 µM

// query Quick check: GI50 of "COc1ccc(C2=Nn3c(nnc3-c3ccc(F)c(Cl)c3)SC2)cc1" ?
// result > 100 µM

// query Quick check: GI50 of "CN[C@@H](C)C(=O)N[C@H](C(=O)N1CCC[C@H]1c1nc(C(=O)c2ccc(F)cc2)cs1)C1CCCCC1" ?
// result 16.5 µM

// query Quick check: GI50 of "O=C(c1ccc(Cl)cc1Cl)N1CCN(C(=O)c2ccc(Cl)cc2Cl)C1=S" ?
// result 21 µM

// query Quick check: GI50 of "CCCC(=O)Oc1ccc(/C(=C(\C)c2ccc(Cl)cc2)c2ccc(OCCN(CC)CC)cc2)cc1" ?
// result 1.82 µM

// query Quick check: GI50 of "CN(C)S(=O)(=O)c1cccc(C(=O)Nc2nc(-c3ccc(F)c(F)c3)cs2)c1" ?
// result 35.6 µM

###

Test system: 786-0 renal
Assay: NCI tumour cell line growth inhibition, 48 h
MEASURED_ENDPOINT: TGI

// query Quick check: TGI of "C/C(Cc1ccc2c(c1)OCO2)=N\N=c1\sc2ccccc2n1C" ?
// result > 100 µM

// query Quick check: TGI of "CC(=O)/C=C1\CC(=O)N(C)c2ccccc2N1" ?
// result > 100 µM

// query Quick check: TGI of "O=C(CSSCC(=O)c1ccc(Cl)cc1)c1ccc(Cl)cc1" ?
// result 14.5 µM

// query Quick check: TGI of "O=C(NC(=S)Nc1ccc(Br)cc1)c1ccc2c(c1)Sc1ccccc1O2" ?
// result > 100 µM

###

Give measured TGI for each item. Keep answers brief.
Test system: SF-295 CNS
Assay: NCI tumour cell line growth inhibition, 48 h

// query Quick check: TGI of "C/C(Cc1ccc2c(c1)OCO2)=N\N=c1\sc2ccccc2n1C" ?
// result > 100 µM

// query Quick check: TGI of "Cc1cc(NC(=O)NCCOc2ccc(N3C(N)=NC(N)=NC3(C)C)cc2Cl)ccc1S(=O)(=O)F" ?
// result > 85.1 µM

// query Quick check: TGI of "CN(c1cccc(C(=O)O)c1)c1cc(O/N=[N+](\[O-])N(C)C)c([N+](=O)[O-])cc1[N+](=O)[O-]" ?
// result > 100 µM

// query Quick check: TGI of "COc1ccc([N+](=O)[O-])c2c(NCCCN(C)C)c(C)c(C)nc12" ?
// result > 100 µM

// query Quick check: TGI of "Nc1[nH]nc(Nc2ccccc2)c1-c1nc2ccccc2s1" ?
// result 3.27 µM

// query Quick check: TGI of "ClCCCN1CCN(CCCl)CC1" ?
// result 456 µM

// query Quick check: TGI of COc1ccc(-c2cc(-c3ccc(C)cc3)n(C3OC(COC(C)=O)C(OC(C)=O)C(OC(C)=O)C3OC(C)=O)c(=S)c2C#N)cc1 (configuration not stated) ?
// result > 100 µM

// query Quick check: TGI of CCC(C)C(Nc1c2ccccc2nc2c(C(=O)NCCN(C)C)cccc12)C(=O)O (configuration not stated) ?
// result 40.9 µM

// query Quick check: TGI of S=C1SCC2CCCN12 (configuration not stated) ?
// result > 100 µM

// query Quick check: TGI of CCOP(=O)(OCC)C(c1ccc(F)cc1)N(C(=O)NC(F)(F)F)c1ccc(F)cc1 (configuration not stated) ?
// result > 100 µM

// query Quick check: TGI of "COc1ccc(-c2c(C#N)c(N)[nH]c(=S)c2C#N)cc1" ?
// result > 100 µM

// query Quick check: TGI of "Cc1cc2ncn(CC(=O)O)c2cc1C" ?
// result > 100 µM

// query Quick check: TGI of "O=C1CCCC2=C1CC1=C(CCCC1=O)N2c1ccc(Cl)cc1" ?
// result > 100 µM

// query Quick check: TGI of "CN(C)CCCNc1ccnc2c([N+](=O)[O-])cccc12" ?
// result 42.2 µM

// query Quick check: TGI of "CC(C)(C)OC(=O)NCCCCCCCCCn1c2c(c3ccccc3c1=O)C(=O)c1ccccc1-2" ?
// result > 100 µM

// query Quick check: TGI of "CN(C)N1C(=O)C(=O)N(c2cccc3ccccc23)C1=O" ?
// result > 10 µM

// query Quick check: TGI of "O=[N+]([O-])c1ccccc1/C=N\NC(=S)N/N=C/c1ccccc1[N+](=O)[O-]" ?
// result 7.41 µM

// query Quick check: TGI of "O=C(CSSCC(=O)c1ccc(Cl)cc1)c1ccc(Cl)cc1" ?
// result 15.2 µM

// query Quick check: TGI of "COc1cc2ncnc(NS(=O)(=O)c3cc4ccccc4s3)c2cc1OC" ?
// result > 100 µM

// query Quick check: TGI of Nc1cc(C2CCCc3c2[nH]c2ccccc32)ccc1O (configuration not stated) ?
// result > 100 µM

// query Quick check: TGI of "OCc1c(-c2cccs2)oc(-c2cccs2)c1CO" ?
// result > 100 µM

// query Quick check: TGI of "O=S1(=O)OCCOS(=O)(=O)C1(F)Cc1ccccc1" ?
// result > 100 µM

###

System: MCF7 breast
Test: NCI tumour cell line growth inhibition, 48 h
MEASURED_ENDPOINT: TGI

// query Quick check: TGI of "Nc1cc(CO)cc(Nc2c3ccccc3nc3ccccc23)c1" ?
// result 29.5 µM

// query Quick check: TGI of "CS(=O)(=O)OCCN(CCOS(C)(=O)=O)c1ccc(C=Nc2ccc(-c3csc(Cc4ccccc4)n3)cc2)c(Cl)c1" ?
// result 50.1 µM

// query Quick check: TGI of "O=C1c2c(c3c4cc(F)ccc4oc3c3[nH]c4ccccc4c23)C(=O)N1O" ?
// result > 100 µM

// query Quick check: TGI of "O=C(c1ccc(Cl)cc1Cl)N1CCN(C(=O)c2ccc(Cl)cc2Cl)C1=S" ?
// result 36.7 µM

// query Quick check: TGI of "COc1ccc(/C=C\c2cc(OC)c(OC)c(OC)c2)cc1NC(=O)/C=C/c1ccc(OC)c(OC)c1" ?
// result > 100 µM

// query Quick check: TGI of "COc1cc2ncnc(NS(=O)(=O)c3cc4ccccc4s3)c2cc1OC" ?
// result > 100 µM

// query Quick check: TGI of "O=C1C=C(NCCc2ccc(O)c([N+](=O)[O-])c2)C(=O)c2[nH]cnc21" ?
// result 78.1 µM

// query Quick check: TGI of COc1cc(/C=C2\C(=O)N(c3cccc(NC(C)=O)c3)C(c3ccccc3)S2(=O)=O)cc(OC)c1OC (configuration not stated) ?
// result > 100 µM

// query Quick check: TGI of CCOC(CBr)OC1C(=O)OCC1(C)C (configuration not stated) ?
// result > 100 µM

// query Quick check: TGI of CC(=O)OCC1OC(n2c(C)c(C)cc(C#N)c2=S)C(OC(C)=O)C(OC(C)=O)C1OC(C)=O (configuration not stated) ?
// result > 100 µM

// query Quick check: TGI of "CCCCn1c(=O)[nH]c2c(N)ncnc21" ?
// result > 100 µM

// query Quick check: TGI of "CC(C)(C)OC(=O)NCCCCCCCCCn1c2c(c3ccccc3c1=O)C(=O)c1ccccc1-2" ?
// result > 100 µM
